# tested-system: Nuclear receptor coactivator 1 (Homo sapiens)
# assay-text: SRC1 coactivator transcriptional activity inhibitors, confirmation, cell-based, luminescence, quadruplicate (AID 588820);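 note: 0% = DMSO wells and 100% = gossypol 36 µM treated wells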
# assay-context: HEK293 GAL4-SRC1 luciferase reporter, at 3.6 µM, stronger effect = higher value
Recorded inhibition, one value per entry.
Your answer should be a plain number; it is taken to be in %.

A selection of reference data follows.
C(=NN1CCCCCC1)c1ccc2ccccc2n1 | 68.3
COC(=O)c1ccc2nc(NC(=O)C(C)(C)C)sc2c1 | -142
COc1ccc(OC)c(S(=O)(=O)NCC(c2ccc3c(c2)OCO3)N2CCOCC2)c1 (stereo unspecified) | -16.7
CCOc1ccc(-c2noc(CCC(=O)O)n2)cc1 | 18.5
COc1cccc(/C=N\NC(=O)c2ccc(Cn3cc(Br)c([N+](=O)[O-])n3)o2)c1O | 35
Cc1oc2c(c1C(=O)N1CCOCC1)C(=O)c1ccccc1C2=O | -13.7
O=C1NC(=O)C(c2ccc(F)cc2)N1 (stereo unspecified) | -2.47
Cc1cc(Nc2cccc(Cl)c2)nc(NCc2ccccc2)n1 | -6.91

Task item: Dear colleague, I am looking for the recorded inhibition of the following compound: COc1ccc(N(C(=O)CCl)C(C(=O)NC2CCCCC2)c2cccnc2)cc1 (stereo unspecified)
Reply: 38.8

Task item: Now the same for O=C(c1ccc(Cl)c(Cl)c1)N1CCN(c2ccccn2)CC1
Reply: -12.5

Task item: Now the same for COc1ccc(Nc2ncnc3ccc(Br)cc23)cc1OC
Reply: 50.7

Data origin: PubChem BioAssay
